- test_details: RP, Thermo Scientific Acclaim RSLC 120 C18, 100 × 2.1 mm, 2.2 µm, 30 °C, 0.2 mL/min, estimated dead time 1.1 min; A: 90% water + 10% methanol + 0.01% formic acid + 5 mM ammonium formate, pH 3.61; B: methanol + 0.01% formic acid + 5 mM ammonium formate, pH 3.61; gradient (min/%B) 0/1 1/1 2/39 13/99.9 15/99.9 15.1/1 20.1/1
- protocol_conditions: stereoisomer not certain
Answer each item with its documented LC retention time.
Respond numerically; units are min and should not be typed.

Tell me the measured LC retention time of CCC1OC(=O)C(C)C(OC2CC(C)(OC)C(O)C(C)O2)C(C)C(OC2OC(C)CC(NC)C2O)C(C)(OC)CC(C)C(=O)C(C)C(O)C1(C)O (centres undefined) , please.
9.16

Look at this compound and give its reported LC retention time. `Nc1ccc(S(=O)(=O)Nc2nccs2)cc1`
3.63

I would be grateful if you could share the reported LC retention time for CCCN1CC(NS(=O)(=O)N(CC)CC)CC2Cc3c(O)cccc3CC21 (centres undefined) [Quinagolide] .
5.24

I have this compound here, CC(C1CC1)C(O)(Cn1cncn1)c1ccc(Cl)cc1 (centres undefined) , and I need its recorded LC retention time.
9.89

----------
- test_details: RP, Thermo Scientific Acclaim RSLC 120 C18, 100 × 2.1 mm, 2.2 µm, 30 °C, 0.2 mL/min, estimated dead time 1.1 min; A: 90% water + 10% methanol + 0.01% formic acid + 5 mM ammonium formate, pH 3.61; B: methanol + 0.01% formic acid + 5 mM ammonium formate, pH 3.61; gradient (min/%B) 0/1 1/1 2/39 13/99.9 15/99.9 15.1/1 20.1/1
- protocol_conditions: stereoisomer not certain
Kindly return 1.0 if reported LC retention time is no lower than 10 min; return 0.0 if it is lower.

Say whether CCC(N)Cc1ccc2c(c1)OCO2 (stereo not given) [BDB] shows LC retention time of 10 min or more.
0.0

Hi, just wondering whether COC(C)(C)CCCC(C)CC=CC(C)=CC(=O)OC(C)C (stereo not given) [Methoprene] shows LC retention time of 10 min or higher.
1.0

Threshold query (LC retention time >= 10 min) on CCCCCc1cc(O)c2c(c1)OC(C)(C)c1ccc(C)cc1-2 [Cannabinol]
1.0

Check the entry CC(C)(C)CC(C)(C)c1ccc(OCCOCC[N+](C)(C)Cc2ccccc2)cc1 [Benzethonium] : does LC retention time equal or exceed 10 min?
1.0

Answer whether LC retention time of O=C(NC12CC3CC(CC(C3)C1)C2)c1cn(CCCCCF)c2ccccc12 [STS-135] is greater than or equal to 10 min.
1.0

----------
- test_details: RP, Thermo Scientific Acclaim RSLC 120 C18, 100 × 2.1 mm, 2.2 µm, 30 °C, 0.2 mL/min, estimated dead time 1.1 min; A: 90% water + 10% methanol + 0.01% formic acid + 5 mM ammonium formate, pH 3.61; B: methanol + 0.01% formic acid + 5 mM ammonium formate, pH 3.61; gradient (min/%B) 0/1 1/1 2/39 13/99.9 15/99.9 15.1/1 20.1/1
- protocol_conditions: stereoisomer not certain
Outcome: yes (1) for LC retention time of at least 10 min; no (0) for anything lower.

Item CCCC(NC(C)C(=O)N1C(C(=O)O)CC2CCCCC21)C(=O)OCC (stereo not given) [Perindopril] with LC retention time of 10 min or above?
yes (1)

Could you verify whether the entry NC(=NN=Cc1ccc(Cl)cc1)NN=Cc1ccc(Cl)cc1 [Robenidine] shows LC retention time of no less than 10 min?
yes (1)

Hi team, for CON=C1CC2(CC3CC(CC=C(C)CC(C)C=CC=C4COC5C(O)C(C)=CC(C(=O)O3)C45O)O2)OC(C(C)=CC(C)C)C1C (stereo not given) [Moxidectin] , is the recorded LC retention time at or above 10 min?
yes (1)

Is it the case that CNC(C)C(=O)c1ccc(C)c(C)c1 (stereo not given) [DMMC (3-4-)] has LC retention time reaching or exceeding 10 min?
no (0)

Does CC(=O)OCCN1CCN(CCCN2c3ccccc3Sc3ccc(Cl)cc32)CC1 [Thiopropazate] have a reported LC retention time of at least 10 min?
no (0)

----------
- test_details: RP, Thermo Scientific Acclaim RSLC 120 C18, 100 × 2.1 mm, 2.2 µm, 30 °C, 0.2 mL/min, estimated dead time 1.1 min; A: 90% water + 10% methanol + 0.01% formic acid + 5 mM ammonium formate, pH 3.61; B: methanol + 0.01% formic acid + 5 mM ammonium formate, pH 3.61; gradient (min/%B) 0/1 1/1 2/39 13/99.9 15/99.9 15.1/1 20.1/1
- protocol_conditions: stereoisomer not certain
test_readout: LC retention time
Give your result as the value with the unit written after it.

Look up LC retention time for this compound: CC1(C)SC2C(NC(=O)C(N)c3ccccc3)C(=O)N2C1C(=O)O (stereo unspecified) [Ampicillin]
4.21 min

Consider the compound shown here: COC(=O)C1C(OC(=O)c2ccccc2)CC2CCC1N2C (stereo unspecified) [Cocaine] What is its recorded LC retention time?
4.84 min

Given the compound COC1C(OC(N)=O)C(O)C(Oc2ccc3c(O)c(NC(=O)c4ccc(O)c(CC=C(C)C)c4)c(=O)oc3c2C)OC1(C)C (stereo unspecified) [Novobiocin] , what is its reported LC retention time?
11.2 min

I am curious: what LC retention time value has been reported for CCNC(C)Cc1ccc2c(c1)OCO2 (stereo unspecified) [MDEA] ?
4.39 min

Looking for the measured LC retention time of CCOP(=S)(OCC)Oc1cnccn1 [Thionazin (Zinophos)] , can you help?
8.35 min

I would be grateful if you could share the reported LC retention time for CC1(C)OC2CC3C4CC(F)C5=CC(=O)C=CC5(C)C4(F)C(O)CC3(C)C2(C(=O)CO)O1 (stereo unspecified) [Fluocinolone acetonide] .
8.73 min

Which LC retention time reading was recorded for the compound NC(=O)c1cccnc1 [Nicotinamide] ?
2.73 min

Any idea what LC retention time was measured for CN(C)CCc1c[nH]c2ccc(CC3COC(=O)N3)cc12 (stereo unspecified) [Zolmitriptan] ?
3.61 min

Which LC retention time value belongs to CCC(c1cccc(O)c1)C(C)CNC (stereo unspecified) [Tapentadol-N-Desmethyl] ?
5.14 min

Please report the recorded LC retention time for Cc1nc2n(c(=O)c1CCN1CCC(c3noc4cc(F)ccc34)CC1)CCCC2O (stereo unspecified) [Risperidone-9-OH (Paliperidone)] .
5.33 min

Suppose we examine the compound Cc1ccc(-c2c(Cl)nc(C#N)n2S(=O)(=O)N(C)C)cc1 [Cyazofamid] ; what LC retention time value has been reported?
10.3 min

Looking for the measured LC retention time of O=C(O)c1cc(N=Nc2ccc(S(=O)(=O)Nc3ccccn3)cc2)ccc1O [Sulfasalazine] , can you help?
6.61 min

Requested field: LC retention time. Item: c1ccc(C2(N3CCCCC3)CCCCC2)cc1 [Phencyclidine]
5.74 min

I'd like to know its LC retention time. The compound in question is Cc1cnc(C(=O)NCCc2ccc(S(=O)(=O)NC(=O)NC3CCCCC3)cc2)cn1 [Glipizide]
8.11 min

Give its LC retention time value. Item: CCOc1ccc(NC(=O)OC(C)C)cc1OCC [Diethofencarb]
9.04 min

Look up LC retention time: CCN(CCO)CCn1c(Cc2ccccc2)nc2c1c(=O)n(C)c(=O)n2C [Bamifylline]
5.24 min

So what's the measured LC retention time for this one? C1=CCC(c2cccnc2)NC1 (stereo unspecified) [Anatabine]
2.68 min

Given the compound Cc1[nH]oc(=O)c1N=Nc1ccccc1Cl [Drazoxolon] , what is its reported LC retention time?
10.3 min

// returns reported LC retention time for input CC(=O)Nc1ccc(-c2ccc(C=NN3CC(=O)NC3=O)o2)cc1 [Acetaminodantrolene]
5.67 min

LC retention time for CCCCCCCCCCCCCC[N+](C)(C)[O-] [N,N-Dimethyltetradecylamine-N-oxide] ?
12.6 min

I'd like to know its LC retention time. The compound in question is CN(C)C(=S)SSC(=S)N(C)C [Thiram (Tetramethylthiuramdisulfide.TMTD)]
6.8 min

I would be grateful if you could share the reported LC retention time for Nc1ncnc(Nc2ccc(Cl)cc2)n1 [Chlorazanil] .
7.46 min

// returns reported LC retention time for input CCNC(=O)C(C)OC(=O)Nc1ccccc1 (stereo unspecified) [Carbetamide]
6.58 min

Any idea what its LC retention time is? The compound is NC(=O)c1ccccc1Oc1ccccc1 [Phenoxybenzamide]
7.79 min

// returns reported LC retention time for input CC1(C)C(C=C(Cl)Cl)C1C(=O)OCc1cccc(Oc2ccccc2)c1 (stereo unspecified) [Permethrin]
13.9 min

Which LC retention time is listed for CCOC(=O)c1cn2nc(OP(=S)(OCC)OCC)cc2nc1C [Pyrazophos] ?
11.4 min

// returns reported LC retention time for input CN(C)CCCN1c2ccccc2Sc2cccnc21 [Prothipendyl]
7.21 min

Quick check: LC retention time of CC(C)C(Br)C(=O)NC(N)=O (stereo unspecified) [Bromural (Bromisoval)] ?
6.17 min

// query LC retention time value for entry CN(C)C=Nc1c(I)cc(I)c(CCC(=O)O)c1I [Iopodic acid]
10.2 min

For the compound Cc1cccc(C)c1N(Cn1cccn1)C(=O)C(=O)O [Metazachlor OA] , what LC retention time is on record?
5.09 min

Value lookup for LC retention time; key = CC(C)Nc1nc(N)[nH]c(=O)n1 [Atrazine-desethyl-2-hydroxy (=Prometon-Hydroxy-Desisopropyl)]
3.16 min

// LC retention time lookup, key: CCCc1nn(C)c2c(=S)nc(-c3cc(S(=O)(=O)N4CC(C)NC(C)C4)ccc3OCC)[nH]c12 (stereo unspecified) [Sildenafil Thiodimethyl]
9.91 min

LC retention time lookup needed for CSc1nc2ccccc2s1 [Benzothiazole- 2-Me-S] , thanks.
9.79 min

If you can, please state the reported LC retention time value of CC1(C)C(C(=O)c2cn(CC3CCOCC3)c3ccccc23)C1(C)C [A-834.735] .
11.4 min

State the recorded LC retention time for this entry: CC(=O)C1(O)CCC2C3CCC4=CC(=O)CCC4(C)C3CCC21C (stereo not drawn) [17alpha-Hydroxyprogesterone]
10 min

Given the compound CCC1CCCC(OC2CCC(N(C)C)C(C)O2)C(C)C(=O)C2=CC3C(C=CC4CC(OC5OC(C)C(OC)C(OC)C5OC)CC43)C2CC(=O)O1 (stereo unspecified) [Spinosyn A] , what is its reported LC retention time?
11.2 min
